- MEASURED_TARGET: Protein farnesyltransferase (Homo sapiens, UniProt P49354+P49356)
- TEST_DETAILS: Inhibition of Farnesyl Transferase
pIC50: −log10 of the molar value.
OBSERVATION_TYPE: pIC50

>>> print(df.to_string())
                                   compound                           measured_target  recorded_result
0  CC(C)=CCC/C(C)=C/CC/C(C)=C/CC(P(=O)(O)O)P(=O)(O)O  Protein farnesyltransferase (Homo sapiens, UniProt P49354+P49356)             4.87

(P) CC(C)=CCC/C(C)=C/CC/C(C)=C/CC1P(=O)(O)CP(=O)(O)OP1(=O)O (stereo not given)
(Q) CC(C)=CCC/C(C)=C/CC/C(C)=C/CC(C/C=C(\C)CC/C=C(\C)CCC=C(C)C)(P(=O)(O)O)P(=O)(O)CP(=O)(O)O (stereo not given)
(R) CC(C)=CCC/C(C)=C/CC/C(C)=C/CC1(C/C=C(\C)CC/C=C(\C)CCC=C(C)C)P(=O)(O)CP(=O)(O)OP1(=O)O (stereo not given)
(S) CC(C)=CCC/C(C)=C/CC/C(C)=C/CC(P(=O)(O)O)P(=O)(O)CP(=O)(O)O (stereo not given)
Exercise: Parameters: sort_field (pIC50), sort_dir (desc). // list labels; follow requested order
Key: S, Q, P, R
(S: 5.74, Q: 5.40, P: 4.47, R: 4.25)
